Assay read-out MIC; system under study: DNA topoisomerase II (Bos taurus).

Please provide the recorded MIC for CN1C(=O)c2c(c3c4ccccc4n(C4OC(CO)C(O)C(O)C4O)c3c3[nH]c4ccccc4c23)C1=O (stereo in doubt; 7) , tested on DNA topoisomerase II (Bos taurus).
> 20 µM

Please provide the recorded MIC for CC1OC(n2c3ccccc3c3c4c(c5c6ccccc6[nH]c5c32)C(=O)N(C)C4=O)C(O)C(O)C1O (stereo in doubt; 13) , tested on DNA topoisomerase II (Bos taurus).
> 20 µM

Please provide the recorded MIC for CN1C(=O)c2c(c3c4ccccc4n(C4OC(CO)C(O)C(O)C4O)c3c3[nH]c4ccccc4c23)C1=O (stereo in doubt; 10) , tested on DNA topoisomerase II (Bos taurus).
> 20 µM

New cases:
Please provide the recorded MIC for CC(=O)OCC1OC(n2c3ccccc3c3c4c(c5c6ccccc6[nH]c5c32)C(=O)N(C)C4=O)C(OC(C)=O)C(OC(C)=O)C1OC(C)=O (stereo in doubt; 3) , tested on DNA topoisomerase II (Bos taurus).
> 15 µM

Please provide the recorded MIC for CC1OC(n2c3ccccc3c3c4c(c5c6ccccc6[nH]c5c32)C(=O)N(C)C4=O)C(O)C(O)C1O (stereo in doubt; 14) , tested on DNA topoisomerase II (Bos taurus).
> 20 µM
